# measuredTarget: PRMT5 (Homo sapiens)
# Construct: purchased Viva (custom protein)
# assayProtocol: PRMT5 IC50 assay with no cofactor
# Type: biochemical
pIC50: −log10 of the molar value.
parameter: pIC50

CC(C)N1CCN(c2cc(C(=O)NC[C@H](O)CN3CCc4cc(OCc5cnco5)ccc4C3)cc(NC3CCC3)n2)CC1 : 5.30 to 6.30
Cc1c(OCc2cnco2)ccc2c1CCN(C[C@@H](O)CNC(=O)c1cc(NC3CCCCC3)ncn1)C2 : ≤ 5.30
O=C(NC[C@H](O)CN1CCc2c(ccc(OCc3cnco3)c2Cl)C1)c1ccnc(N[C@H]2CC[C@H](C(F)(F)F)CC2)c1 : ≤ 5.30
Cc1ncoc1COc1ccc2c(c1Cl)CCN(C[C@@H](O)CNC(=O)c1cccc(NC3COC3)c1)C2 : ≤ 5.30
Cc1ncoc1COc1ccc2c(c1)CCN(C[C@@H](O)CNC(=O)c1cc(NC3CCC3)nc(N3C4CCC3COC4)c1)C2 : 5.30 to 6.30
CCCC(=O)N1CC(Nc2cc(C(=O)NC[C@H](O)CN3CCc4c(ccc(OCc5cnco5)c4C)C3)ccn2)C1 : 5.30 to 6.30
CCCC(=O)N1CCC(Nc2cc(C(=O)NC[C@H](O)CN3CCc4cc(OCc5cnco5)ccc4C3)ccn2)CC1 : 5.30 to 6.30

---

pIC50: recorded values
# measuredTarget: PRMT5 (Homo sapiens, UniProt O14744)
# Construct: purchased Viva (custom protein)
# Sequence (O14744 whole entry): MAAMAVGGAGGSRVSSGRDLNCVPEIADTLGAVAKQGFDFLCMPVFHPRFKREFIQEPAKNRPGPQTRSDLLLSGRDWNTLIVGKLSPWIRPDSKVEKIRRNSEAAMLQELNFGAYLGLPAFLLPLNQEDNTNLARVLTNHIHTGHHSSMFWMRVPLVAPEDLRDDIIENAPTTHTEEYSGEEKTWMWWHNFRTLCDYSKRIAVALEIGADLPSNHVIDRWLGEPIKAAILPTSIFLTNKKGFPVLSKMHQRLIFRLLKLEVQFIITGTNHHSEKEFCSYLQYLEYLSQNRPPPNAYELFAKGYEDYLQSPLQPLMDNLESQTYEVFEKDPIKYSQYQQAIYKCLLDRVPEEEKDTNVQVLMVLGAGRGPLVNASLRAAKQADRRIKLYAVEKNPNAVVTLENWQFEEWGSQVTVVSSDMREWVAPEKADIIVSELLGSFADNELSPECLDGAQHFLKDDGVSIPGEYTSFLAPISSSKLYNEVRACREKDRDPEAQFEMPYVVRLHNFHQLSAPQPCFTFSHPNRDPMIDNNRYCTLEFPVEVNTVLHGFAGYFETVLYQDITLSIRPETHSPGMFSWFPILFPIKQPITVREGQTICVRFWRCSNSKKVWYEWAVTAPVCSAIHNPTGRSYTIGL
# Sequence (Q9BQA1 whole entry partner): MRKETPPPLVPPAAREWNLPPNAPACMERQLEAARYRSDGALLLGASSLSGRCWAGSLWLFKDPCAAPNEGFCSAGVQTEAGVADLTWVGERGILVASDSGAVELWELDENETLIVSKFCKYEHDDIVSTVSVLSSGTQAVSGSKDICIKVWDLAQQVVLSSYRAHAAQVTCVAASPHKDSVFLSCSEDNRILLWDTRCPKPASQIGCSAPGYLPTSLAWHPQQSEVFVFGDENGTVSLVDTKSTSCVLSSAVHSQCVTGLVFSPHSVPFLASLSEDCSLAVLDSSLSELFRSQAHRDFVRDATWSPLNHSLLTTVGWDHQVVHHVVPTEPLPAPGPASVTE
# assayProtocol: PRMT5 IC50 assay in the presence of MTA as cofactor
# Format: biochemical
# conditionContext: PRMT5, MTA as cofactor
pIC50: −log10 of the molar value.
parameter: pIC50

CC(=O)N1CCC(Nc2cc(C(=O)NC[C@H](O)CN3CCc4nc(OCc5ocnc5C)ccc4C3)ccn2)CC1 [Compound 617] : 6.30 to 7.30
Cc1c(OCc2ccnn2C)ccc2c1CCN(C[C@@H](O)CNC(=O)c1ccnc(NC3CCC3)c1)C2 [Compound 161] : 5.30 to 6.30
Cc1c(OCc2cnco2)ccc2c1CCN(C[C@@H](O)CNC(=O)c1ccnc(NC3CCN(C(=O)CC(C)C)CC3)c1)C2 [Compound 447] : 6.30 to 7.30
CC(=O)N1CC2CC1CC2Nc1cc(C(=O)NC[C@H](O)CN2CCc3cc(OCc4ocnc4C)ccc3C2)ncn1 (stereo partly drawn) [Compound 632] : 6.30 to 7.30
CC(=O)N1CC(Nc2cc(C(=O)NC[C@H](O)CN3CCc4c(ccc(OCc5cnco5)c4Cl)C3)nc(N3CCCCC3)n2)C1 [Compound 532] : 6.30 to 7.30
Cc1ncoc1COc1ccc2c(c1Br)CCN(C[C@@H](O)CNC(=O)c1cccc(NC3COC3)c1)C2 [Compound 381] : 5.30 to 6.30
Cc1ncoc1COc1ccc2c(c1)CCN(C[C@@H](O)CNC(=O)c1cc(NC3CCC3)nc(N(C)C3CCC3)c1)C2 [Compound 635] : 6.30 to 7.30
Cc1c(OCc2cnco2)ccc2c1CCN(C[C@@H](O)CNC(=O)c1ccnc(NC3CCN(S(C)(=O)=O)CC3)c1)C2 [Compound 386] : 6.30 to 7.30
O=C(NC[C@H](O)CN1CCc2cc(OCc3cnco3)ccc2C1)c1ccnc(Nc2cccnc2)c1 [Compound 399] : 6.30 to 7.30
O=C(NC[C@H](O)CN1CCc2cc(OCc3cnco3)ccc2C1)c1ccc(OC2CCN(Cc3ccccc3)CC2)cc1 [Compound 291] : 6.30 to 7.30
CO[C@H]1CC[C@H](Nc2cc(C(=O)NC[C@H](O)CN3CCc4c(ccc(OCc5cnco5)c4C)C3)ncn2)CC1 [Compound 572] : 6.30 to 7.30
Cc1c(OCc2cnco2)ccc2c1CCN(C[C@@H](O)CNC(=O)c1cc(NC3CCN(C(=O)C(C)(C)C)CC3)ncn1)C2 [Compound 523] : 6.30 to 7.30
Cc1ncoc1COc1ccc2c(c1)CCN(C[C@@H](O)CNC(=O)c1cc(Nc3cccnc3)nc(N3CCCCC3)c1)C2 [Compound 601] : > 7.30
CCN(C)c1cc(C(=O)NC[C@H](O)CN2CCc3c(ccc(OCc4ocnc4C)c3C)C2)cc(NC2CCC2)n1 [Compound 478] : 6.30 to 7.30
Cc1ncoc1COc1ccc2c(c1Cl)CCN(C[C@@H](O)CNC(=O)c1ccnc(NC3CCC3)c1)C2 [Compound 252] : 6.30 to 7.30
O=C(NC[C@H](O)CN1CCc2c(Cl)c(OCc3cnco3)cc(F)c2C1)c1ccnc(NC2CCC2)c1 [Compound 279] : 6.30 to 7.30
CC(=O)N1CCC(Nc2cc(C(=O)NC[C@H](O)CN3CCc4c(ccc(OCc5cnn[nH]5)c4Cl)C3)ncn2)CC1 [Compound 343] : 5.30 to 6.30
CCCN(C)c1nc(NC2COC2)cc(C(=O)NC[C@H](O)CN2CCc3cc(OCc4cnco4)ccc3C2)n1 [Compound 294] : 6.30 to 7.30
Cc1ncoc1COc1ccc2c(c1)CCN(C[C@@H](O)CNC(=O)c1ccc3c(c1)CCN(C(=O)c1ccc(Br)cc1)C3)C2 [Compound 493] : > 7.30
CC(=O)N1CCC(Nc2cc(C(=O)NC[C@H](O)CN3CCc4cc(OCc5ocnc5C)c(F)cc4C3)ncn2)CC1 [Compound 576] : 6.30 to 7.30
Cc1ncoc1COc1ccc2c(c1)CCN(C[C@@H](O)CNC(=O)c1cncc(NC3CCC3)c1)C2 [Compound 271] : 6.30 to 7.30
Cc1ncoc1COc1ccc2c(c1C)CCN(C[C@@H](O)CNC(=O)c1cc(NC3CCC3)nc(N3CCN(C(=O)C(C)C)CC3)c1)C2 [Compound 459] : 6.30 to 7.30
CC(=O)N1CC(Nc2cc(C(=O)NC[C@H](O)CN3CCc4cc(OCc5cnco5)ccc4C3)ccn2)C1 [Compound 451] : 6.30 to 7.30
CC(=O)N1CC(Nc2cc(C(=O)NC[C@H](O)CN3CCc4c(ccc(OCc5cnco5)c4Cl)C3)nc(C(C)(C)C)n2)C1 [Compound 360] : 6.30 to 7.30
Cc1ncoc1COc1ccc2c(c1C)CCN(C[C@@H](O)CNC(=O)c1cc(NC3COC3)nc(N3CCCCC3)n1)C2 [Compound 391] : 6.30 to 7.30
Cc1c(OCc2cnco2)ccc2c1CCN(C[C@@H](O)CNC(=O)c1cc(NC3CCN(C(=O)C(C)C)CC3)ncn1)C2 [Compound 520] : 6.30 to 7.30
Cc1c(OCc2cnco2)ccc2c1CCN(C[C@@H](O)CNC(=O)c1ccnc(N[C@H]3C[C@@H](CO)C3)c1)C2 [Compound 487] : 6.30 to 7.30
